# Tested on: MCF7 breast
# Measurement notes: NCI tumour cell line growth inhibition, 48 h
Measure: TGI (µM)
State just the number; it will be interpreted in µM.

Below, 2 molecules whose answers are already recorded.
NC(=O)c1ccc(-c2c3ccccc3cc3c2ccc2ccccc23)cc1	11.6
Cc1cc(C(C)(C)C)c(OCCCN2CCOCC2)c(C(C)(C)C)c1	33.6

**Query** Reported TGI, molecule c1csc(-c2csc(-c3cccs3)c2)c1 : ____
**Result** 75.2

**Query** Entry Cc1[nH]nc(C(=O)N/N=C/c2cccs2)c1N=NN(C)C has what TGI?
**Result** 47.4

**Query** Please give the measured TGI for this molecule: CC(=O)Oc1ccc(-c2c(OC(C)=O)c(OC(C)=O)c(-c3ccc(OC(C)=O)c(OC(C)=O)c3)c(OC(C)=O)c2OC(C)=O)cc1
**Result** 50.6

**Query** For C=C1C(=O)OC2C1CC1OC2C(C)CCC/C(C)=C\CCC1(C)O (stereo not given) , what is its reported TGI?
**Result** 57.4

**Query** Look at this molecule and give its reported TGI. CC(=O)OCC1OC(O[C@@H]2C[C@H]3C(C)(C)[C@H](OC(C)=O)CC[C@]3(C)[C@H]3CC[C@@H]4[C@]5(CC[C@@]4(C)[C@@]32C)O[C@@H]([C@H](O)C(C)(C)O)C[C@@H]5C)C(O)C(O)C1O (stereo not given in full)
**Result** 6.03

**Query** # TGI lookup, item COc1cc(/C=C2\N=C(c3ccccc3)N(c3ccc(C(=O)c4ccccc4)cc3N3C(=O)/C(=C/c4cc(OC)c(OC)c(OC)c4)N=C3c3ccccc3)C2=O)cc(OC)c1OC
**Result** 42.1

**Query** Look up TGI: COc1cccc2c1C(=O)c1c(O)c3c(c(O)c1C2=O)C[C@](O)(C(=O)CO)CC3OC1CC(N)C(OC2CCCCO2)C(C)O1 (stereo not given in full)
**Result** 12.1

**Query** // lookup TGI for CN(C)CCCN1C(=O)N(CCCN(C)C)c2c3cc(O)ccc3nc3c([N+](=O)[O-])ccc1c23
**Result** 40.4

**Query** May I ask what TGI has been recorded for CCCCCCCCCCCOCCC1C(C(C)OCCN2CCCC2)OC2OC(C)(C)OC21 (stereo not given) ?
**Result** 6.58

**Query** Given the molecule CN(C)c1ccc(/C=N/Nc2ccc(-c3nc4ccccc4[nH]3)cc2)cc1 , what is its reported TGI?
**Result** 35.6

**Query** Quick one: TGI for CC1=C(C(=O)OC(C)C)C(c2cccc([N+](=O)[O-])c2)C(C(=O)OC(CO[N+](=O)[O-])CO[N+](=O)[O-])=C(C)N1 (stereo not given) ?
**Result** 1.12
